- assaySystem: T1, human SIRPβL ECD recombinant protein (6×His tagged) (human, UniProt Q5TFQ8 30-371)
- T1 construct: given variously as SIRPBL, SIRPBI and SIRPβI; Bought from Biointron; also called human SIRPBL ECD; human SIRPBI ECD
- T1 sequence (Q5TFQ8 30-371 limits assumed): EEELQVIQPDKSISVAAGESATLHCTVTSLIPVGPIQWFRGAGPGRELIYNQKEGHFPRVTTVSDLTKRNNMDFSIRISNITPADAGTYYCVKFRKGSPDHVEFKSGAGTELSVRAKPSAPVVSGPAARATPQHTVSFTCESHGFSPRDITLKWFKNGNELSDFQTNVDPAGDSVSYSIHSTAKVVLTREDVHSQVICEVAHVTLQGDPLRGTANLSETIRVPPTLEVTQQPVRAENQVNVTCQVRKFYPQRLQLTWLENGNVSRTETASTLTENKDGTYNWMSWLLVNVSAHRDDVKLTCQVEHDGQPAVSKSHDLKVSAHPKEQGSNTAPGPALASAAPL
- assaySummary: ELISA, hSIRPβI ECD
Below, each of the binders is paired with its reported TOP OD450 value.
Express your answer in OD450, writing the number without its unit.

[[record]]
binder = "059c (antibody, V domains shown, also called chimeric antibody 059c) VH: QVQLQQSGPELVKPGASVKMSCKASGYTFSEYVLSWVKQRTGQGLEWIGEIYPGTITTYYNEKFKGKATLTADKSSNTAYIQLTSLTSEDSAVYFCGRFYDYDGGWFAYWGQGTLLTVSA VL: ENVLTQSPEKMAVSLGQKVTMTCSASSSVSSSDLHWYQQKSGASPKPLIHGTSNLASGVPARFSGSGSGTSYSLTISSVEAEDAATYYCQQWSGYPWTFGGGTNLEIK"
reported = 3.35

[[record]]
binder = "025c (antibody, V domains shown, also called chimeric antibody 025c; parental antibody of 025c) VH: EVQLQQSGAELVKPGASVKLSCTASGFNIKDYYMHWVKQRTEQGLEWIGRIDPEDGETKYAPKFQGKATITADTSSNTAYLQLSSLTSEDTAVYYCDRGLAYWGQGTLVTVSA VL: QIVLTQSPAIMSASPGEKVTLTCSASSSVSSSYLYWYQQKPGSSPKLWIYSTSNLASGVPARFSGSGSGTSYSLTISSMEAEDAASYFCHQWSSYPYTFGGGTKLEIK"
reported = 2.8

[[record]]
binder = "071c (antibody, V domains shown, also called chimeric antibody 071c) VH: QIQLVQSGPELKKPGETVKISCKASGYTFTTYGMSWVKQAPGKGLKWMVWINTYSGVPTYADDFQGRFAFSLETSASTSYLQINNLRNEDTATYFCARDPHYYGTSPAWFAYWGQGTLVTVSA VL: DIVMTQSQKFMSTTIGDRVIITCKASQIVGIAVAWYQQKPGQSPKLLIYSASNRFTGVPDRFTGSGSGTDFTLTISNMQSEDLADYFCQQYSTYPFTFGSGTKLEIK"
reported = 2.66


Q) Tell me the measured TOP OD450 of 042c (antibody, V domains shown, also called chimeric antibody 042c) VH: QIQLVQSGPELKKPGETVKISCRASGYTFTTYGMSWVKQAPGKGLRWMGWINTYSGVSTCADDFKGRFAFSLETSATTAYLQIHNLTNEDTATYFCARDPHSYGNSPAWFPYWGQGTLVTVSA VL: DIVMTQSQKFMSTTIRDRVSITCKASQNVGISVAWYQQKSGQSPKLLIYSASNRYTGVPDRFTGSGSGTDFTLTISNMQSEDLADYFCQQYSSYPLTFGSGTKLAIK , please.
A) 2.69

Q) Tell me the measured TOP OD450 of 015c (antibody, V domains shown, also called chimeric antibody 015c) VH: EVQLQQSGVEVVQPGASVKLSCTASGFNIEAYYMHWVKQRTEQGLEWIGRIDPEDGESKYAPKFQGKATMTADTSSSTAYLQLSSLTSDDTAVYYCVRGSYEYWGQGTTLTVSS VL: QIVLTQSPAIMSASPGEKVTLTCSASSSVSSSYLYWYQQKPGSSPKLWIYSTSNLASGVPPRFSGSGSGTSYSLTISSMQAEDAASYFCYQWSSYPYTFGGGTKLEIK , please.
A) 3.1

Q) Tell me the measured TOP OD450 of 073c (antibody, V domains shown, also called chimeric antibody 073c) VH: QIQLVQSGPELKKPGETVKISCKASGYTFTTYGMSWVKQAPGKGLKWMVWINTYSGVPTYADDFKGRFAFSLETSASTSYLQINNLKNEDTATYFCARDPHYYGSSPAWFVYWGQGTLVTVSA VL: DIVMTQSQKFMSTTIGDRVSITCEASQIVGIAVAWYQQKPGQSPKLLIYSASNRYTGVPDRFTGSGSGTDFTLTISNMQSEDLANYFCQQYSAYPFTFGSGTKLEVK , please.
A) 2.64

Q) Tell me the measured TOP OD450 of hu1H9G4 (antibody, V domains shown) VH: QVQLVQSGAEVKKPGASVKVSCKASGYTFTSYWITWVKQAPGQGLEWIGDIYPGSGSTNHIEKFKSKATLTVDTSISTAYMELSRLRSDDTAVYYCATGYGSSYGYFDYWGQGTLVTVSS VL: DIQMTQSPSSLSASVGDRVTITCRASENIYSYLAWYQQKPGKAPKLLIYTAKTLAEGVPSRFSGSGSGTDFTLTISSLQPEDFATYYCQHQYGPPFTFGQGTKLELK , please.
A) 2.74
